System: clostripain
Construct: is a two-chain proteinase that can be isolated from Clostridium histolyticum; purchased Worthington LS001641
Method: Clostripain cleavage, LC/MS analysis
Assay type: in vitro ADME, Clostridium histolyticum
Measurement Context: Clostridium histolyticum, clostripain (isolated protease), pH 7.6, 5 U clostripain/mg, 8 h; read-out: remaining % ABD variant
Where no end group is shown, it is not given here.
Field: remaining at 8 h. Provide a value for each of the sequences that follow.
Please give a number only; it is taken to be in %.

Item: GSSLAEAKEAANAELDSYGVSDFYKNLIDKAKTVEGVEALKDAILAALP [PEP12379] | remaining at 8 h: 47

Item: GSSLAEAKEAANAELDSYGVSDFYKSLIDKAKTVEGVEALKDAILAALP [PEP12381] | remaining at 8 h: 31

Item: GSSLAEAKEAANAELDSYGVSDFYKRLIDKAKTVEGVEALKDAILAALP [PEP07843, reference compound] | remaining at 8 h: 0

Item: GSSLAEAKEAANAELDSYGVSDFYKKLIDKAKTVEGVEALKDAILAALP [PEP12380] | remaining at 8 h: 69
